GI50 reference
Test system: SK-MEL-5 melanoma
Experimental details: NCI tumour cell line growth inhibition, 48 h

Example entries and their recorded answers appear below.
Record "Cn1cc(-c2nc(-c3c[nH]c4ncccc34)cs2)c2cc(Cl)ccc21" : what is its GI50 with SK-MEL-5 melanoma?
7480 nM

Moving on to "COc1cc(-c2cc(C(=O)Nc3nc4ccccc4s3)nc3cc(-c4ccccc4)nn23)cc(OC)c1OC"
13800 nM

Queued: "CC[C@@]1(O)C(=O)OCc2c1cc1n(c2=O)Cc2c-1nc1ccccc1c2C=Nc1ccc(N[C@@H]2c3cc4c(cc3[C@@H](c3cc(OC)c(O)c(OC)c3)[C@H]3C(=O)OC[C@@H]32)OCO4)cc1"
25.5 nM

Consider next the compound COc1cc(/C=C2\CC(C)CC3C2=NN(c2ccccc2)C3c2cc(OC)c(OC)c(OC)c2)cc(OC)c1OC (stereo not drawn) in the same way.
11800 nM

Then "Clc1ccc(Nc2ccnc(NCCNc3ccnc4cc(Cl)ccc34)n2)cc1" ?
1310 nM

Further, for "COc1ccc(-c2nc3sccn3c2/C=C/C(=O)c2cc(OC)c(OC)c(OC)c2)cc1OC" ?
1540 nM

Now the compound "CCNCCNc1cc(-c2ccc(Cl)cc2)c(C#N)c2nc3ccccc3n12"
1700 nM

Read the next record carefully.
Requested read-out GI50, target or system SK-MEL-5 melanoma, entry "COc1ccc(C(=O)c2cc(OC)c(OC)c(OC)c2)cc1/C=C/C(=O)c1ccc(O)cc1"
1460 nM

====

Test system: MOLT-4 leukemia
Experimental details: NCI tumour cell line growth inhibition, 48 h
Parameter measured: TGI

State the recorded TGI for this entry: "C=C(CN1CCc2ccccc2C1)c1ccc(/C=C/C(=O)Nc2ccccc2N)cc1"
> 100 µM

What do we get for "C=C1C(=O)O[C@H]2[C@H]1CC/C(COC(=O)/C=C/c1cccnc1)=C\CC[C@@]1(C)O[C@@H]21" ?
4.9 µM

Try this compound next: "CNc1nc2c(C)ccc3nc(N(C)C)nc-3c2n1C"
> 10 µM

For "O=[N+]([O-])/C(C(Cl)=C(Cl)Cl)=C(\Nc1cccc2cccnc12)Sc1ccccc1" then?
37.4 µM

***
Value lookup for TGI; key = "O=C(O)CSCC(=O)c1ccccc1"
> 100 µM

Thanks! And "CSC1=C(C)S/C(=C\c2ccc(/C=C3\SC(C)=C(SC)S3)cc2)S1" ?
> 100 µM

Can you check "Cc1c(C(=O)CCl)c(=O)n(-c2ccccc2)n1C" next?
11.5 µM

Thanks! And "CS(=O)(=O)c1ccc(Oc2nccc(-c3c(-c4ccc(F)cc4)ncn3C3CCNCC3)n2)cc1" ?
> 18.9 µM

One more compound: COC(=O)C1=C(C(=O)OC)C2(c3ccccc3)c3ccccc3C(=O)C1N2C1CCCCC1 (configuration not stated)
> 81.4 µM

Another compound: "CC[N+](C)(C)c1ccc(C(=C2C=CC(=[N+](C)C)C=C2)c2ccc(N(C)C)cc2)cc1"
46.1 µM

Also check "O=C(Nc1cccc(C2=NCCN2)c1)c1ccc(OCCCOc2ccc(C(=O)Nc3cccc(C4=NCCN4)c3)cc2)cc1"
> 100 µM

For "Brc1nc2c3ccccc3ncn2c1Br" then?
84.6 µM

Then this compound: CC1=C2C(=CC(C)(CO)C2O)C(=O)C(C)(O)C12CC2 (configuration not stated)
0.0104 µM

Moving on to the next compound: "COc1ccc(OC)c2sc(N3C(=O)/C(=C/c4ccc(N(C)C)cc4)N=C3c3ccccc3)nc12"
65.7 µM

Further, for "CCCCn1c(C)c(C)c2c1NN=C(C#N)S2(=O)=O" ?
> 100 µM

Thanks! And "O=C(CCl)Nc1ccccc1SCc1cc(Cl)cc2c1OCOC2" ?
7.51 µM

Also, "O=c1oc2ccccc2cc1-c1ccc([N+](=O)[O-])cc1" please.
> 100 µM

====

System: SK-MEL-2 melanoma
Experimental details: NCI tumour cell line growth inhibition, 48 h
Parameter measured: TGI (µM)
Lab book: enter the figure in µM, no units written.

# get_value(readout='TGI', item= COc1ccc2c(c1)nc1n2C(c2c(F)cccc2F)SC1 (stereo unspecified) )
96.7

***
Which TGI is reported for this compound? "O=C1C(Cl)=C(Oc2ccccc2)C(=O)c2ccccc21"
19.4

====

System: NCI-H522 lung
Experimental details: NCI tumour cell line growth inhibition, 48 h
Where a SMILES comes first, the peptide text is derived from it. The star is where a group is joined. Boc = CC(C)(C)OC(=O)*
As shown below, each of these compounds has a reported TGI value.

Give the measured TGI of "Cc1cccc(/C=N/NC(=S)NC2CCCCC2)n1" .
> 64.3 µM

Please answer likewise for "COc1ccc(/C=C\c2cc(OC)c(OC)c(OC)c2)cc1NC(=O)[C@@H](N)CO"
0.0457 µM

// same read-out, input: COC(=O)C(Cc1c[nH]c2ccccc12)NC(=O)C(Cc1c[nH]c2ccccc12)NC(=O)C(Cc1c[nH]c2ccccc12)NC(=O)C(Cc1c[nH]c2ccccc12)NC(=O)C(Cc1c[nH]c2ccccc12)NC(=O)OC(C)(C)C (configuration not stated) (Boc-WWWWW-OMe; configuration not given here)
> 100 µM

Others:
Can you look up the measured TGI of COC(=O)C1Cc2c(n(C)c3ccccc23)C(c2ccccc2)N1 (configuration not stated) for me?
93.1 µM

Repeat for the following compound: CC12CC(=O)OC(Cc3ccccc31)O2 (configuration not stated)
> 100 µM

Moving on to the next compound: Cc1cccc2c1CC(C1OC(=O)c3c(C)cccc31)C2=O (configuration not stated)
> 100 µM

How about O=C(O)C1CCCN1Cc1c[nH]c2ccccc12 (configuration not stated) ?
> 100 µM

====

Test system: HCT-116 colon
Experimental details: NCI tumour cell line growth inhibition, 48 h; in the data active = GI50 below about 0.43 µM; inactive = the rest
Outcomes you can answer with include only these: y for active, n for inactive

Consider the following illustrative entries.
Outcome logged for "COC(=O)c1ccc(-c2nc3cc(F)c(F)cc3nc2C#N)cc1" in this assay:
n

Cool, now "CC[C@@]1(O)C(=O)OCc2c1cc1n(c2=O)Cc2c-1nc1ccccc1c2C=Nc1ccc(N[C@@H]2c3cc4c(cc3[C@@H](c3cc(OC)c(O)c(OC)c3)[C@H]3C(=O)OC[C@@H]32)OCO4)cc1"
y

Then what about the molecule "Cc1ccc2c(/C=C/C(=O)c3cc(CN4CCOCC4)c(O)c4nc(C)ccc34)cc(CN3CCOCC3)c(O)c2n1" ?
y

Kindly consider the entry below.
So what was the verdict on "COc1c(O)cc2oc3cc(O)c(CC=C(C)C)c(O)c3c(=O)c2c1C/C=C(\C)CCC=C(C)C" in this test?
n

====

System: NCI-H226 lung
Experimental details: NCI tumour cell line growth inhibition, 48 h
Listing of entries alongside the reported TGI.

Observe how each entry below is paired with its result.
Field request: TGI | item: "COc1ccc(/C=C(\C#N)n2nnc3cc(Cl)ccc32)cc1"
> 23.3 µM

What do you get for "O=C(O)CSCC(=O)c1ccccc1" ?
> 100 µM

# repeat for "COc1ccc(-n2c(-c3ccc(NC(=O)CCCl)cc3)nnc2-c2cc(OC)c(OC)c(OC)c2)cc1"
> 14.3 µM

Next:
Query: TGI; subject: "C[C@@H](Oc1cc(-c2cnn(C3CCNCC3)c2)cnc1N)c1c(Cl)ccc(F)c1Cl"
> 10 µM

Now the molecule "COc1ccc(/C=C/C(=O)/C=C(/C=C/c2ccc(OC)c(OC)c2)OB(F)F)cc1OC"
6.88 µM

Lookup "COc1ccc(/C=C/C(=N/NC(=O)N/N=C(/C=C/c2ccc(OC)cc2)C(C)C)C(C)C)cc1"
> 100 µM

Here is the next molecule: COC(=O)C1C(O)C(C)C(O)C(C)/C=C\C=C(C)C(=O)Nc2c(C)c(OC(C)=O)c3c(c2O)C(=O)C(C)=C2OCOC(=C23)C(C)=CC(C)(O)C(O)C(C)C1O (centres undefined)
> 100 µM

Please answer likewise for C=CC[P@@]1(=O)O[C@H](c2ccccc2)C(C)N1C(C)C (some centres undefined)
> 100 µM

Consider next the molecule CCOC(=O)C(C)c1nc2cc(F)c(N3CCOCC3)cc2[nH]c1=O (centres undefined) in the same way.
> 100 µM

====

Test system: IGROV1 ovarian
Experimental details: NCI tumour cell line growth inhibition, 48 h
TGI listing for selected molecules.

Completed entries (count: 3):
Returns the measured TGI for the input molecule. Input: "Cc1cc(Cl)ccc1NC(=O)/C(Cc1nc2ccc(C(=O)c3ccccc3)cc2[nH]c1=O)=N/NC(=O)c1ccncc1"
> 100 µM

Now consider "COc1ccccc1/[N+]([O-])=C/c1ccccc1OC(=S)S" and answer again.
77.2 µM

Follow-up entry: COC(=O)C1=C(O)C(C(=O)OC)[C@]2(O)[C@H](C(=O)OC)[C@H]1C[C@@H](c1ccc(O)cc1)[C@H]2C(=O)OC (stereo not given in full)
> 100 µM

Others:
# lookup: TGI of "Brc1nc2c3ccccc3ncn2c1Br"
> 100 µM

Input COC(=O)C1Cc2c(n(C)c3ccccc23)C(c2ccccc2)N1 (stereo not given)
> 100 µM
